Origin of values: patent US9090652B2

# Assay Target: bovine serum albumin (Bos taurus)
# Construct: 5% bovine serum albumin-saline solution
# Sequence (P02769 25-607): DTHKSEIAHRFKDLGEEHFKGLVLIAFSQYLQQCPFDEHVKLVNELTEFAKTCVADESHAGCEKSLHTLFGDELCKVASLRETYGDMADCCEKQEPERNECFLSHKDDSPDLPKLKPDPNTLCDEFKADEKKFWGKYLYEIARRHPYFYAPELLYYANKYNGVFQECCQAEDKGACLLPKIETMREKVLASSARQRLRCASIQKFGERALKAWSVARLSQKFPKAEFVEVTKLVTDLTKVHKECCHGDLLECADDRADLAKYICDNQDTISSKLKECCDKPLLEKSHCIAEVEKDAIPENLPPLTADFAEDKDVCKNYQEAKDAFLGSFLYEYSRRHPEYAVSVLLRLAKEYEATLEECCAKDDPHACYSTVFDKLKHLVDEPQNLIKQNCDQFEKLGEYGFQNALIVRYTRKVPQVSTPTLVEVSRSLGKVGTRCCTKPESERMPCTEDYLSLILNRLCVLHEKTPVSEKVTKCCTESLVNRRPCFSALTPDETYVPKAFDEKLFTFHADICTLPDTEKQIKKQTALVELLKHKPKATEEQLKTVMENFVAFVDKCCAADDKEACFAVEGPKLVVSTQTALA
# Assay Comment: Albumin binding by equilibrium dialysis
# Assay type: in vitro ADME
# Test Parameters: 100 μM BA in 5% bovine serum albumin-saline, 25° C.
Listing of entries alongside the reported % Binding (albumin).
# answer = value followed by unit

Sample answers from the record:
// lookup % Binding (albumin) for C[C@H](CCC(=O)O)[C@H]1CC[C@H]2[C@@H]3[C@@H](O)C[C@@H]4C[C@H](O)CC[C@]4(C)[C@H]3CC[C@]12C 94%

Return reported % Binding (albumin); argument: CC[C@H]1[C@@H](O)C2C3CCC(C(C)CCOS(=O)(=O)[O-])[C@@]3(C)CCC2[C@@]2(C)CC[C@@H](O)C[C@@H]12.[Na+] (some centres unmarked) 85%

Record request: % Binding (albumin) value, item C[C@H](CCC(=O)NCCS(=O)(=O)O)[C@H]1CC[C@H]2[C@@H]3[C@@H](O)C[C@@H]4C[C@H](O)CC[C@]4(C)[C@H]3CC[C@]12C 67%

Look at this compound and give its reported % Binding (albumin). CC[C@H]1[C@@H](O)[C@@H]2[C@H](CC[C@]3(C)[C@@H]([C@H](C)CCC(=O)O)CC[C@@H]23)[C@@]2(C)CC[C@@H](O)C[C@@H]12 96%

Proceed to the following item.
Quick one: % Binding (albumin) of C[C@H](CCC(=O)O)[C@H]1CC[C@H]2[C@@H]3[C@H](O)C[C@@H]4C[C@H](O)CC[C@]4(C)[C@H]3CC[C@]12C ? 93%
